Biological target: human blood platelet PDE5 (Homo sapiens)
Construct: obtained by suitably treating various tissues and separating the enzyme with FPLC; from tissue; host or cells: human blood platelets
Test: PDE5 enzyme inhibition activity test (scintillation proximity)
Type: biochemical
Details: as repeated in the PDE6 table
Parameter: IC50 (nM)

Reference set (5 entries):
> print(dat)
                                   compound  observed.measurement
1  CCCOc1ccc(NC(=O)N2CCCC2)cc1-c1nc(CC)c(CC)c(=O)[nH]1 [Example 49]                  1.86
2  CCCOc1ccc(C(=O)NCC(=O)OCC)cc1-c1nc(CC)c(CC)c(=O)[nH]1 [Example 89]                  1.98
3  CCCOc1ccc(NC(C)=O)cc1-c1nc(CC)c(CC)c(=O)[nH]1 [Example 53]                  0.57
4  CCCOc1ccc(NC(C)=O)cc1-c1nc(C(C)C)c(Br)c(=O)[nH]1 [Example 52]                  1.46
5  CCCOc1ccc(NC(=O)NCCN(CC)CC)cc1-c1nc(CC)c(CC)c(=O)[nH]1.O=C(O)/C=C\C(=O)O [Example 204, maleate]                  0.88

a: CCCOc1ccc(NC(=O)C(N)=O)cc1-c1nc(CC)c(CC)c(=O)[nH]1 [Example 114]
b: CCCOc1ccc(C(=O)N2CCOCC2)cc1-c1nc(CC)c(CC)c(=O)[nH]1 [Example 59]
Pick one: a or b . Which has the bigger IC50 number? Respond using the label that marks the chosen record.
a
(a: 0.83 nM, b: 0.57 nM)

a: CCCOc1ccc(S(=O)(=O)NCCCS(=O)(=O)O)cc1-c1nc(CC)c(CC)c(=O)[nH]1 [Example 124]
b: CCCOc1ccc(NC(=O)C2CC(O)CN2C(=O)OC(C)(C)C)cc1-c1nc(CC)c(CC)c(=O)[nH]1 (centres unmarked) [Example 57]
Compare reported IC50 values for a and b . Which is lower? Respond using the label that marks the chosen record.
a

P: CCCOc1ccc(C(=O)NC(C)C(=O)O)cc1-c1nc(CC)c(CC)c(=O)[nH]1 (centres unmarked) [Example 145]
Q: CCCOc1ccc(C(=O)NCCCS(=O)(=O)O)cc1-c1nc(CC)c(CC)c(=O)[nH]1 [Example 169]
Compare reported IC50 values for P and Q . Which is lower? Respond using the label that marks the chosen record.
Q

A: CCCOc1ccc(C(=O)CN2CCOCC2)cc1-c1nc(CC)c(CC)c(=O)[nH]1 [Example 76]
B: CCCOc1ccc(NC(=O)NCC)cc1-c1nc(CC)c(CC)c(=O)[nH]1 [Example 68]
Pick one: A or B . Which has the bigger IC50 number? Respond using the label that marks the chosen record.
A
(A: 1.99 nM, B: 0.53 nM)
